study target: DRB01*07:01
details: chains peptide; modification not given
experimental readout: pIC50
Entry type: numeric. Quantity: pIC50, the -log10 of concentration in molar units.

Reported pIC50, binder RGHLRIAGHHLGRCDIKDLPKEI [SEQ ID NO 307] : ____ 4.99
